Hey, just so you know, these numbers are from the supplement of paper PMC12669032.

- System: Bifidobacterium longum subsp. longum
- PROTOCOL DETAILS: growth AUC relative to DMSO control (median of replicates) (fraction); higher = more growth (less inhibition), active = hit call of the paper;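 active = AUC reduced over 20% with Padj below 0.05 in at least 2 of 3 replicates; inactive = otherwise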
- CONDITION DESCRIPTION: 20 µM; 24 h
Entry note: the call must match one of class 1 (active), class 0 (inactive)

Req: Identify the outcome logged in this assay for the molecule shown: O=C(NC(=O)c1c(F)cccc1F)Nc1ccc(Oc2ccc(C(F)(F)F)cc2Cl)cc1F
Resp: class 0

Req: Test call for this molecule, please: COC(=O)c1cc(Oc2ccc(Cl)cc2Cl)ccc1[N+](=O)[O-]
Resp: class 0

Req: Per the records of this test, what outcome belongs to CCc1cccc(C)c1N(C(=O)CCl)C(C)COC (stereo not given) ?
Resp: class 0

Req: Please indicate how the test categorized O=C(NC(=O)c1c(F)cccc1F)Nc1cc(Cl)c(OC(F)(F)C(F)C(F)(F)F)cc1Cl (stereo not given) .
Resp: class 0

Req: I would be grateful if you could indicate the recorded call for CNC(=O)N(C)c1nc2ccccc2s1 .
Resp: class 0

Req: Short answer needed: outcome of this test for N#CCNC(=O)c1cnccc1C(F)(F)F ?
Resp: class 0

Req: Per the records of this test, what outcome belongs to CCN(Cc1ccc(Cl)nc1)/C(=C/[N+](=O)[O-])NC ?
Resp: class 0

Req: Called result for CCOCCN(C(=O)CCl)C(=C(C)C)c1ccccc1
Resp: class 0

Req: Hi, sorry to bother you, what did the test record for OC(c1ccc(F)cc1)(c1cncnc1)c1ccccc1Cl (stereo not given) ?
Resp: class 0

Req: Dear all, I need the recorded test outcome for COCC(=O)N(c1c(C)cccc1C)[C@H](C)C(=O)OC , thank you.
Resp: class 0

Req: For CCC(C)n1c(=O)[nH]c(C)c(Br)c1=O (stereo not given) , which call appears in the assay record?
Resp: class 0

Req: Call for entry Cl.NC1=NCCN1Cc1ccc(Cl)nc1 :
Resp: class 0

Req: Lab log entry: Nc1ccc(Cl)cc1 — outcome as called in the assay?
Resp: class 0

Req: # fetch the recorded call for CC(C)(C)C(O)C(Oc1ccc(-c2ccccc2)cc1)n1cncn1 (mixture of isomers) here
Resp: class 0

====

Parameter: growth AUC. Scope: all listed entries.
- Tested on: Collinsella aerofaciens
- PROTOCOL DETAILS: growth AUC relative to DMSO control (median of replicates) (fraction); higher = more growth (less inhibition), active = hit call of the paper
- CONDITION DESCRIPTION: 20 µM; 24 h

- COMPOUND: "CCOP(=O)(SC(C)CC)SC(C)CC (stereo not drawn)"
  TARGET DESC: "Collinsella aerofaciens"
  growth AUC: "0.933 (inactive)"
- COMPOUND: "CCCCN(CCCC)N=O"
  TARGET DESC: "Collinsella aerofaciens"
  growth AUC: "1.03 (inactive)"
- COMPOUND: "ClC1=C(Cl)[C@]2(Cl)[C@@H]3[C@H]4C[C@H]([C@@H]5O[C@H]45)[C@@H]3[C@@]1(Cl)C2(Cl)Cl"
  TARGET DESC: "Collinsella aerofaciens"
  growth AUC: "0.936 (inactive)"
- COMPOUND: "Cc1[nH]c(=O)n(C(C)(C)C)c(=O)c1Cl"
  TARGET DESC: "Collinsella aerofaciens"
  growth AUC: "0.924 (inactive)"
- COMPOUND: "CS(=O)(=O)NC(=O)c1cc(Oc2ccc(C(F)(F)F)cc2Cl)ccc1[N+](=O)[O-]"
  TARGET DESC: "Collinsella aerofaciens"
  growth AUC: "0.951 (inactive)"

Req: Please look up its growth AUC: C=CCOC(Cn1ccnc1)c1ccc(Cl)cc1Cl.O=S(=O)(O)O (stereo not drawn)
Resp: 0.845 (inactive)

Req: What does the data say about its growth AUC? Entry: Oc1ccc(-c2ccccc2)cc1
Resp: 1 (inactive)

Req: Bench note: what growth AUC did C/C(=N/Nc1nc(C)cc(C)n1)c1ccccc1C show?
Resp: 0.979 (inactive)

Req: I am curious: what growth AUC value has been reported for CC1(C)[C@H](/C=C(\Cl)C(F)(F)F)[C@@H]1C(=O)O[C@@H](C#N)c1cccc(Oc2ccccc2)c1 ?
Resp: 0.932 (inactive)

Req: What does the data say about its growth AUC? Entry: O=C(Nc1ccc(F)cc1F)c1cccnc1Oc1cccc(C(F)(F)F)c1
Resp: 0.946 (inactive)

Req: What value of growth AUC has been recorded for this entry: CCCOP(=S)(OCCC)SCC(=O)N1CCCCC1C (stereo not drawn)
Resp: 1.06 (inactive)

Req: Need growth AUC, item CC(=O)CC(c1ccco1)c1c(O)c2ccccc2oc1=O (stereo not drawn)
Resp: 0.967 (inactive)

Req: What does the record list as growth AUC for COC(=O)COc1cc(Cl)c(Cl)cc1Cl ?
Resp: 1 (inactive)

Req: Any idea what its growth AUC is? The compound is O=S(=O)(Oc1ccc(Cl)cc1)c1ccc(Cl)cc1
Resp: 0.961 (inactive)

Req: Value lookup for growth AUC; key = CO/N=C(/C1=NOCCO1)c1ccccc1Oc1ncnc(Oc2ccccc2Cl)c1F
Resp: 1.02 (inactive)

Req: Fill blank: measured growth AUC of the compound CCOCn1c(-c2ccc(Cl)cc2)c(C#N)c(Br)c1C(F)(F)F is ____.
Resp: 0.926 (inactive)

Req: Query: growth AUC; subject: Oc1ccc(C(c2ccc(O)cc2)(C(F)(F)F)C(F)(F)F)cc1
Resp: 0.894 (inactive)

Req: Reported growth AUC for O=[N+]([O-])c1cc(C(F)(F)F)c(Cl)c([N+](=O)[O-])c1Nc1ncc(C(F)(F)F)cc1Cl : what is it?
Resp: 0.886 (inactive)

Req: For the compound shown here, CCOP(=S)(OCC)SCSCC , give the reported growth AUC.
Resp: 1.01 (inactive)

Req: For the compound CCCOCC(=Nc1ccc(Cl)cc1C(F)(F)F)n1ccnc1 , what growth AUC is on record?
Resp: 0.941 (inactive)

Req: growth AUC lookup needed for CCCCc1c(C)nc(N(C)C)[nH]c1=O , thanks.
Resp: 1.05 (inactive)

Req: Using the record for COP(=O)(OC)OC=C(Cl)Cl , report its growth AUC.
Resp: 1.01 (inactive)

Req: What value of growth AUC has been recorded for this entry: Cc1cc(Cl)ccc1OC(C)C(=O)O (stereo not drawn)
Resp: 1.01 (inactive)

====

- Tested on: Parabacteroides merdae
- PROTOCOL DETAILS: growth AUC relative to DMSO control (median of replicates) (fraction); higher = more growth (less inhibition), active = hit call of the paper
- CONDITION DESCRIPTION: 20 µM; 24 h
REPORTED ENDPOINT: growth AUC
Simply state the number, no unit and no words.

- COMPOUND: "Clc1ccc(C(c2ccc(Cl)cc2)C(Cl)(Cl)Cl)cc1"
  growth AUC: 0.69
- COMPOUND: "CNC(=O)Oc1cccc(N=CN(C)C)c1.Cl"
  growth AUC: 1.02
- COMPOUND: "CCC/C(=N\\OCC)C1=C(O)CC(CC(C)SCC)CC1=O (stereo unspecified)"
  growth AUC: 0.988

Req: Query growth AUC on Parabacteroides merdae for CCOP(=S)(NC(C)CC)Oc1cc(C)ccc1[N+](=O)[O-] (stereo unspecified)
Resp: 0.967

Req: Form field: growth AUC recorded for COCC(C)N(C(=O)CCl)c1c(C)csc1C (stereo unspecified) with Parabacteroides merdae (enter value)
Resp: 1

Req: Form field: growth AUC recorded for Clc1nc(Cl)nc(Nc2ccccc2Cl)n1 with Parabacteroides merdae (enter value)
Resp: 0.969

Req: Return growth AUC measured with Parabacteroides merdae given this compound: CCC(C)c1cc([N+](=O)[O-])cc([N+](=O)[O-])c1O (stereo unspecified)
Resp: 0.929

Req: Record CCCOP(=S)(OCCC)SCC(=O)N1CCCCC1C (stereo unspecified) : what is its growth AUC with Parabacteroides merdae?
Resp: 0.955

Req: What growth AUC appears in the records for this compound with Parabacteroides merdae? CC(Oc1ccc(Oc2ccc(C(F)(F)F)cn2)cc1)C(=O)O (stereo unspecified)
Resp: 0.993

Req: Query growth AUC on Parabacteroides merdae for C=CCC1=C(C)C(OC(=O)[C@@H]2[C@@H](C=C(C)C)C2(C)C)CC1=O (stereo partly specified)
Resp: 0.999

Req: Tell me reported growth AUC for CN1COCN(Cc2cnc(Cl)s2)/C1=N/[N+](=O)[O-] , tested with Parabacteroides merdae.
Resp: 0.994

Req: Write down the reported growth AUC of CC(COc1ccc(Oc2ccccc2)cc1)Oc1ccccn1 (stereo unspecified) , test system: Parabacteroides merdae.
Resp: 0.929

====

- Test system: Eubacterium rectale
- PROTOCOL DETAILS: growth AUC relative to DMSO control (median of replicates) (fraction); higher = more growth (less inhibition), active = hit call of the paper
- CONDITION DESCRIPTION: 20 µM; 24 h
Recorded growth AUC values for a group of compounds are listed next.
The answer should be a number; do not append a unit.

Consider the worked cases shown below.
- COMPOUND: "CC(C)=CC1C(C(=O)OC(C#N)c2cccc(Oc3ccccc3)c2)C1(C)C (mixture of isomers)"
  REPORTED ENDPOINT: "growth AUC"
  MEAS VALUE: 0.965
- COMPOUND: "O=[N+]([O-])c1ccc2ccc3cccc4ccc1c2c34"
  REPORTED ENDPOINT: "growth AUC"
  MEAS VALUE: 0.577
- COMPOUND: "Oc1c(Br)cc(Br)cc1Br"
  REPORTED ENDPOINT: "growth AUC"
  MEAS VALUE: 1
- COMPOUND: "OC(c1ccc(Cl)cc1)(c1cncnc1)c1ccccc1Cl (stereo not given)"
  REPORTED ENDPOINT: "growth AUC"
  MEAS VALUE: 1.14

Consider the record given below.
Req: What value of measured growth AUC is listed for COP(=S)(OC)Oc1ccc(S(N)(=O)=O)cc1 ?
Resp: 0.901
